# System: Mycoplasma putrefaciens
# assay protocol: Antimicrobial activity against Mycoplasma putrefaciens KS1 after 24 hrs by twofold serial dilution method
# Format: functional
# condition info: KS1, 24 h
measured metric: log10 MIC (log10 of the value in µg/mL)

>>> measured_result("C[C@H]1c2cccc(O)c2C(=O)C2=C(O)[C@]3(O)C(=O)C(C(N)=O)=C(O)[C@@H](N(C)C)[C@@H]3[C@@H](O)[C@@H]21.O [DOXYCYCLINE]")
-1.52
>>> measured_result("CC[C@H]1OC(=O)C[C@@H](O)[C@H](C)[C@@H](O[C@@H]2O[C@H](C)[C@@H](O[C@H]3C[C@@](C)(O)[C@@H](O)[C@H](C)O3)[C@H](N(C)C)[C@H]2O)[C@@H](CC=O)C[C@@H](C)C(=O)/C=C/C(C)=C/[C@@H]1CO[C@@H]1O[C@H](C)[C@@H](O)[C@@H](OC)[C@H]1OC [TYLOSIN]")
-1.22
>>> measured_result("O=C(O)c1cn(C2CC2)c2cc(N3CCNCC3)c(F)cc2c1=O [CIPROFLOXACIN]")
-0.60
>>> measured_result("CN[C@@H]1[C@H](O)[C@H](NC)[C@H]2O[C@@]3(O)C(=O)C[C@@H](C)O[C@H]3O[C@@H]2[C@H]1O [SPECTINOMYCIN]")
1.51
>>> measured_result("CN(C)[C@@H]1C(O)=C(C(N)=O)C(=O)[C@@]2(O)C(O)=C3C(=O)c4c(O)ccc(Cl)c4[C@@](C)(O)[C@H]3C[C@@H]12 [CHLORTETRACYCLINE]")
0.60
>>> measured_result("CCN1CCN(c2cc3c(cc2F)c(=O)c(C(=O)O)cn3C2CC2)CC1 [ENROFLOXACIN]")
-0.90

---

# Test system: Mycoplasma putrefaciens
# assay protocol: Antimicrobial activity against Mycoplasma putrefaciens Jordanian isolates after 24 hrs by twofold serial dilution method
# Format: functional
measured metric: log10 MIC50 (log10 of the value in µg/mL)

>>> measured_result("O=C(O)c1cn(C2CC2)c2cc(N3CCNCC3)c(F)cc2c1=O")
-0.60
>>> measured_result("CCn1cc(C(=O)O)c(=O)c2cc(F)c(N3CCNCC3)cc21")
0.30
>>> measured_result("CCC[C@@H]1C[C@@H](C(=O)N[C@@H]([C@H]2O[C@H](SC)[C@H](O)[C@@H](O)[C@H]2O)[C@@H](C)O)N(C)C1")
-0.30
>>> measured_result("CC[C@H]1OC(=O)[C@H](C)[C@@H](O[C@H]2C[C@@](C)(OC)[C@@H](O)[C@H](C)O2)[C@H](C)[C@@H](O[C@@H]2O[C@H](C)C[C@H](N(C)C)[C@H]2O)[C@](C)(O)C[C@@H](C)C(=O)[C@H](C)[C@@H](O)[C@]1(C)O")
-1.52
>>> measured_result("CN[C@@H]1[C@H](O[C@H]2[C@H](O[C@H]3[C@H](O)[C@@H](O)[C@H](N=C(N)N)[C@@H](O)[C@@H]3N=C(N)N)O[C@@H](C)[C@]2(O)C=O)O[C@@H](CO)[C@H](O)[C@H]1O")
1.51
>>> measured_result("CCN1CCN(c2cc3c(cc2F)c(=O)c(C(=O)O)cn3C2CC2)CC1")
-0.90
>>> measured_result("C[C@H]1c2cccc(O)c2C(=O)C2=C(O)[C@]3(O)C(=O)C(C(N)=O)=C(O)[C@@H](N(C)C)[C@@H]3[C@@H](O)[C@@H]21.O")
-0.90
>>> measured_result("CN(C)[C@@H]1C(O)=C(C(N)=O)C(=O)[C@@]2(O)C(O)=C3C(=O)c4c(O)cccc4[C@@](C)(O)[C@H]3[C@H](O)[C@@H]12")
-0.30
>>> measured_result("CN(C)[C@@H]1C(O)=C(C(N)=O)C(=O)[C@@]2(O)C(O)=C3C(=O)c4c(O)ccc(Cl)c4[C@@](C)(O)[C@H]3C[C@@H]12")
0.60
>>> measured_result("CC[C@H]1OC(=O)C[C@@H](O)[C@H](C)[C@@H](O[C@@H]2O[C@H](C)[C@@H](O[C@H]3C[C@@](C)(O)[C@@H](O)[C@H](C)O3)[C@H](N(C)C)[C@H]2O)[C@@H](CC=O)C[C@@H](C)C(=O)/C=C/C(C)=C/[C@@H]1CO[C@@H]1O[C@H](C)[C@@H](O)[C@@H](OC)[C@H]1OC")
-1.82
>>> measured_result("O=C(N[C@H](CO)[C@H](O)c1ccc([N+](=O)[O-])cc1)C(Cl)Cl")
0.30
>>> measured_result("CN[C@@H]1[C@H](O)[C@H](NC)[C@H]2O[C@@]3(O)C(=O)C[C@@H](C)O[C@H]3O[C@@H]2[C@H]1O")
1.20

---

# Tested on: Mycoplasma putrefaciens
# assay protocol: Antimicrobial activity against Mycoplasma putrefaciens French isolates after 24 hrs by twofold serial dilution method
# Assay type: functional
measured metric: MIC50 (µg/mL)

>>> measured_result("CCN1CCN(c2cc3c(cc2F)c(=O)c(C(=O)O)cn3C2CC2)CC1 [ENROFLOXACIN]")
0.125
>>> measured_result("CCC[C@@H]1C[C@@H](C(=O)N[C@@H]([C@H]2O[C@H](SC)[C@H](O)[C@@H](O)[C@H]2O)[C@@H](C)O)N(C)C1 [LINCOMYCIN]")
1
>>> measured_result("CC[C@H]1OC(=O)C[C@@H](O)[C@H](C)[C@@H](O[C@@H]2O[C@H](C)[C@@H](O[C@H]3C[C@@](C)(O)[C@@H](O)[C@H](C)O3)[C@H](N(C)C)[C@H]2O)[C@@H](CC=O)C[C@@H](C)C(=O)/C=C/C(C)=C/[C@@H]1CO[C@@H]1O[C@H](C)[C@@H](O)[C@@H](OC)[C@H]1OC [TYLOSIN]")
0.03
>>> measured_result("CN(C)[C@@H]1C(O)=C(C(N)=O)C(=O)[C@@]2(O)C(O)=C3C(=O)c4c(O)ccc(Cl)c4[C@@](C)(O)[C@H]3C[C@@H]12 [CHLORTETRACYCLINE]")
8
>>> measured_result("O=C(N[C@H](CO)[C@H](O)c1ccc([N+](=O)[O-])cc1)C(Cl)Cl [CHLORAMPHENICOL]")
4
